molecular target: Ribosomal protein S6 kinase beta-1 (Homo sapiens, UniProt P23443); assay: Inhibition of S6K1
Sequence (P23443 whole entry): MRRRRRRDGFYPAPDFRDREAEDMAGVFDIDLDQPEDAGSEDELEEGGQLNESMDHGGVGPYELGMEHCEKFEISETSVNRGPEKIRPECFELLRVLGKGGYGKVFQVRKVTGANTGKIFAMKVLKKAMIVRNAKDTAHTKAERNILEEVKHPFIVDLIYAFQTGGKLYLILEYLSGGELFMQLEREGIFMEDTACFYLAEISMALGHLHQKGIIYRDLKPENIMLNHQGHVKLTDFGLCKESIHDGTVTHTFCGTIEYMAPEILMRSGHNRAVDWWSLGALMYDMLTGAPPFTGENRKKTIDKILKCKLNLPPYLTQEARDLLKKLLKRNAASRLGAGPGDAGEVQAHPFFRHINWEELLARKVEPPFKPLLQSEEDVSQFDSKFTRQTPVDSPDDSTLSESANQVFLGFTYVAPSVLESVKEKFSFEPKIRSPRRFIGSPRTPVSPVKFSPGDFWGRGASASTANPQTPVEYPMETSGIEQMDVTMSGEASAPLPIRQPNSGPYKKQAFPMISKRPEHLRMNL
Measure name: IC50 (nM)

For orientation, consider the following solved cases.
> print(dat)
                               smiles.input  recorded.value
1  COCCNC(=O)c1cc(C(C)(C)C)sc1NC(=O)Nc1ccc2[nH]ncc2c1               7
2  Cc1cc(C(=O)NCCN(C)C)c(NC(=O)Nc2ccc3[nH]ncc3c2)s1             223
3  CN(C)CCNC(=O)c1cc(C2CC2)sc1NC(=O)Nc1ccc2[nH]ncc2c1              70
4  CC(C)c1cc(C(=O)NCCN(C)C)c(NC(=O)Nc2ccc3[nH]ncc3c2)s1              29
5  CC(C)(C)c1cc(C(=O)NC2CC2)c(NC(=O)Nc2ccc3[nH]ncc3c2)s1              10

P = CC(C)(C)c1ccc(NC(=O)Nc2ccc3[nH]ncc3c2)s1
Q = C[C@@H](O)c1cc(C(=O)NCCN(C)C)c(NC(=O)Nc2ccc3[nH]ncc3c2)s1
R = Cc1c(O)cccc1NC(=O)Nc1sc(C(C)(C)C)cc1C(=O)N1CCS(=O)(=O)CC1
S = C[C@H](O)c1cc(C(=O)NCCN(C)C)c(NC(=O)Nc2ccc3[nH]ncc3c2)s1
QUERY: Sort these compounds on IC50 so the largest reading comes first. # list labels per requested ordering
RESULT: R, S, Q, P
(R: 4000 nM, S: 379 nM, Q: 196 nM, P: 19 nM)

----------
molecular target: CYP2D6 (Homo sapiens, UniProt P10635); assay: Inhibition of CYP2D6 at 3 uM by LC/MS/MS analysis; type: ADME
Sequence (P10635 whole entry): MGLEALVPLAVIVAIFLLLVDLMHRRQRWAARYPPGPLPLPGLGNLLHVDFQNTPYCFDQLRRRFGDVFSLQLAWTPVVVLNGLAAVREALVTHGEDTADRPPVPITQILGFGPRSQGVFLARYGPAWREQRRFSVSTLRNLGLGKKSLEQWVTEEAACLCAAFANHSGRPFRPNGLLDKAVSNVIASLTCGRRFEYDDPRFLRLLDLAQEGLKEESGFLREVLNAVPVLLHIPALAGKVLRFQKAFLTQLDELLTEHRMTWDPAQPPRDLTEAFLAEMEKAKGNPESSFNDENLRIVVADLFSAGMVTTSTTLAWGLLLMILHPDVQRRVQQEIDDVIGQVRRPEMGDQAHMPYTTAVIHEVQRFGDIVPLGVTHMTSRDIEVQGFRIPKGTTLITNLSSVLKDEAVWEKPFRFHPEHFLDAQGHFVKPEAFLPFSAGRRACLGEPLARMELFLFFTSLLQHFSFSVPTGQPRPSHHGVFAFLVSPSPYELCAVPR
Measure name: inhibition at 3 µM (%)

For orientation, consider the following solved cases.
> print(dat)
                               smiles.input                        subject.of.test        measure.name  recorded.value
1  CC(C)(C)c1ccc(NC(=O)Nc2ccc3[nH]ncc3c2)s1  CYP2D6 (Homo sapiens, UniProt P10635)  inhibition at 3 µM              20
2  CC(C)(C)c1cc(C(=O)NC2CC2)c(NC(=O)Nc2ccc3[nH]ncc3c2)s1  CYP2D6 (Homo sapiens, UniProt P10635)  inhibition at 3 µM              12
3  CN(C)CCNC(=O)c1cc(C(C)(C)C)sc1NC(=O)Nc1ccc2[nH]ncc2c1  CYP2D6 (Homo sapiens, UniProt P10635)  inhibition at 3 µM               7

A = CC(C)(C)c1cc(C(=O)O)c(NC(=O)Nc2ccc3[nH]ncc3c2)s1
B = CC(C)(C)c1cc(C(=O)NCCO)c(NC(=O)Nc2ccc3[nH]ncc3c2)s1
QUERY: Out of A and B , name the one with the higher inhibition at 3 µM. Selection: enter the item's label.
RESULT: B
(B: 9%, A: 0%)

----------
test: Half life in human hepatocytes at 1 uM by LC/MS/MS analysis; assay type: ADME, cell-based, Liver, Hepatocyte
Measure name: half-life at 1 µM (h)

For orientation, consider the following solved cases.
> print(dat)
                               smiles.input  display.unit  recorded.value
1  CN(C)CCNC(=O)c1cc(C(C)(C)C)sc1NC(=O)Nc1ccc2[nH]ncc2c1             h            2.08
2  COCCNC(=O)c1cc(C(C)(C)C)sc1NC(=O)Nc1ccc2[nH]ncc2c1             h            6.12

1 = CC(C)(C)c1cc(C(=O)NCCO)c(NC(=O)Nc2ccc3[nH]ncc3c2)s1
2 = CC(C)(C)c1cc(C(=O)NC2CC2)c(NC(=O)Nc2ccc3[nH]ncc3c2)s1
QUERY: Out of 1 and 2 , name the one with the higher half-life at 1 µM. Selection: enter the item's label.
RESULT: 1
(1: 4.38 h, 2: 2.3 h)
